testParameters: 333.15 K; 100 kPa; Liquid; Frequency=8 MHz; Pulse-echo method
Overview of reported speed of sound across a group of compounds:
Could you give me the number in m/s? Just the number is fine.

OCCCO | 1544.1
CC(O)CO (centres undefined) | 1408.9
CC(C)CO | 1071.8

Input line: Field request: speed of sound | item: CC(C)O
Output line: 1016

These measurements were taken from the NIST ThermoML archive (doi:10.1016/j.jct.2016.06.001).
